TARGET OR TEST SYSTEM: Recombinant hBcl-2 protein (human)
PROTOCOL DESCRIPTION: DELFIA displacement assay
pIC50: −log10 of the molar value. Non-standard residues stand in square brackets, D forms with d. code λ = not defined here

| BINDER | pIC50 |
| --- | --- |
| Ac-[code h]ATQLRRFGDKLNFRQKLLN-NH2 [homo_hNOXA (Ac-h…-NH2)] | < 6.00 |
| Ac-[code λ]ATQLRRFGDKLNFRQKLLN-NH2 (reading uncertain) [λ_hNOXA (Ac-λ…-NH2)] | < 6.00 |

Data provenance: paper PMC5320539
